# study.system: wild-type human ALK cytoplasmic domain (amino acids 1058-1620) (Homo sapiens)
# Construct: The cytoplasmic domain (amino acids 1058-1620) of wild-type human ALK; GST (N); made in house; host or cells: SF9 insect cells
# Sequence (Q9UM73 1058-1620): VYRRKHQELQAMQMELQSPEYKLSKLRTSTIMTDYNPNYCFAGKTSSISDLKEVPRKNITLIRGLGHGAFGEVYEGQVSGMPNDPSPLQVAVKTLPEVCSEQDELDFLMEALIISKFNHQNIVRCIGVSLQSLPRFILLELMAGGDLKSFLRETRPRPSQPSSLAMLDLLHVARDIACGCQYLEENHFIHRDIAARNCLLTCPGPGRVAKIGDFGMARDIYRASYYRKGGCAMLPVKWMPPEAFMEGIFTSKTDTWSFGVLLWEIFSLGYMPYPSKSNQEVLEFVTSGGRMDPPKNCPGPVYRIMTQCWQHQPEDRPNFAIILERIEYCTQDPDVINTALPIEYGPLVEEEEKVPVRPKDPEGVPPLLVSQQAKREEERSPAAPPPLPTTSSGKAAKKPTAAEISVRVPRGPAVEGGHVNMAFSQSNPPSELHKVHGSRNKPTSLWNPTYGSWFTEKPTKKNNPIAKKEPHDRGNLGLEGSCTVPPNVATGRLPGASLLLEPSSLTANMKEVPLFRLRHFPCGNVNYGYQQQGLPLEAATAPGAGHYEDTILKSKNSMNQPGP
# assay.comment: ALK Inhibition in Enzyme Assay (Lance TR-FRET)
# Assay type: biochemical
# measurement.setup: 2 nM enzyme, ATP at 40 μM (Km apparent), 90 minutes, mean of three replicates; read-out: ALK IC50
# Method: ALK Inhibition in Enzyme Assay Kinase activity of the purified protein was assessed using a Lance® TR-FRET assay. […] Phosphorylation of the peptide substrate was detected using the Lance® detection reagents streptavidin-allophycocyanin (SA-APC) and Eu-W1024 anti-phosphotyrosine antibody (PT66) from Perkin Elmer Life Sciences (Waltham, Mass.). The plates were read on a RUBY star plate reader (BMG LABTECH, Cary, N.C.) with an excitation wavelength of 320 nm.
readout: IC50

IC50 measured on COc1ccc(NC(C)=O)cc1Nc1nccc(N2CCC[C@H](C(=O)NCc3ccc(C)cc3)C2)n1 [Example 138] = 1 to 5 µM
